B1: FERM and PDZ domain-containing protein 4, residues 75 to 154; numbered along this chain, Q14CM0 (parent)
chain: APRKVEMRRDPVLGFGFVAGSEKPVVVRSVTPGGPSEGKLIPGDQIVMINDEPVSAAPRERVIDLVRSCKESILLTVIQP

Variants of: B1
ASSAY: abundance fitness (aPCA) (normalised: wild type 0, dead -1); higher = more abundant; growth selection in yeast, the domain comes from the species named
CONDITION_CONTEXT: Homo sapiens
Tag: 1.0 if measured abundance fitness is not below -0.04, 0.0 if it is.

Worked set:
>>> qualitative_label("V26Y")
0.0
>>> qualitative_label("D10S")
0.0
>>> qualitative_label("D64T")
0.0
>>> qualitative_label("S36D")
0.0
>>> qualitative_label("P80Y")
0.0
>>> qualitative_label("V5M")
0.0

Query: Given the entry `V5S` , answer whether its abundance fitness meets or surpasses -0.04.
Response: 0.0

Query: Now consider `A57T` .
Response: 1.0

Query: Now consider `G34L` .
Response: 0.0

Query: Now consider `Q45K` .
Response: 0.0

Query: Now consider `P24W` .
Response: 0.0

Query: Now consider `V47K` .
Response: 0.0

Query: Now consider `L75A` .
Response: 0.0

Query: Now consider `E37H` .
Response: 0.0

Query: Now consider `L65S` .
Response: 0.0

Query: Now consider `A1D` .
Response: 0.0

Query: Now consider `P35Y` .
Response: 0.0

Query: Now consider `V66L` .
Response: 1.0
